# test_summary: Plasma pharmacokinetics (LC–MS/MS, non-compartmental analysis)
# Type: in vivo, Japanese patients
# experimental_setup: human, plasma, oral, 1400 mg, Cycle 1 Day 8; 1400 mg qd; n = 5; read-out: AUClast, Median
value_type: AUC(0-t) (ng·h/mL)
Give the number; ng·h/mL is assumed, so skip it.

Query block: If you can, please state the reported AUC(0-t) value of Cn1c(=O)n(-c2ccc(C(C)(C)C#N)cc2)c2c3cc(-c4cnc5ccccc5c4)ccc3ncc21 [BEZ235] .
Result block: 35900

* * *

# test_summary: Plasma pharmacokinetics (LC–MS/MS, non-compartmental analysis)
# Type: in vivo, Japanese patients
# experimental_setup: human, plasma, oral, 400 mg, Cycle 1 Day 28; 400 mg qd; n = 3; read-out: AUCinf, Median
# Method: The PK parameters were determined by non-compartmental analysis using Phoenix WinNonlin 6.2® (Pharsight, Mountain View, CA).
value_type: AUC(0-inf) (µg·h/mL)
Give the number; µg·h/mL is assumed, so skip it.

Query block: If you can, please state the reported AUC(0-inf) value of `Cn1c(=O)n(-c2ccc(C(C)(C)C#N)cc2)c2c3cc(-c4cnc5ccccc5c4)ccc3ncc21` .
Result block: 10.2

* * *

# test_summary: Plasma pharmacokinetics (LC–MS/MS, non-compartmental analysis)
# Assay type: in vivo, Japanese patients
# experimental_setup: human, plasma, oral, 400 mg, Cycle 1 Day 1; 400 mg qd; n = 3; read-out: Tmax, Median
value_type: Tmax (h)
Give the number; h is assumed, so skip it.

Query block: If you can, please state the reported Tmax value of `Cn1c(=O)n(-c2ccc(C(C)(C)C#N)cc2)c2c3cc(-c4cnc5ccccc5c4)ccc3ncc21` .
Result block: 4

* * *

# test_summary: Plasma pharmacokinetics (LC–MS/MS, non-compartmental analysis)
# Type: in vivo, Japanese patients
# experimental_setup: human, plasma, oral, 400 mg, Cycle 1 Day 8; 400 mg bid; n = 6; read-out: AUClast, Median
value_type: AUC(0-t) (ng·h/mL)
Give the number; ng·h/mL is assumed, so skip it.

Query block: If you can, please state the reported AUC(0-t) value of `Cn1c(=O)n(-c2ccc(C(C)(C)C#N)cc2)c2c3cc(-c4cnc5ccccc5c4)ccc3ncc21` .
Result block: 9700

* * *

# test_summary: Plasma pharmacokinetics (LC–MS/MS, non-compartmental analysis)
# Type: in vivo, Japanese patients
# experimental_setup: human, plasma, oral, 1400 mg, Cycle 1 Day 1; 1400 mg qd; n = 2; read-out: AUC0 − 24, Median
value_type: AUC(0-t) (ng·h/mL)
Give the number; ng·h/mL is assumed, so skip it.

Query block: If you can, please state the reported AUC(0-t) value of Cn1c(=O)n(-c2ccc(C(C)(C)C#N)cc2)c2c3cc(-c4cnc5ccccc5c4)ccc3ncc21 [BEZ235] .
Result block: 13700

* * *

# test_summary: Plasma pharmacokinetics (LC–MS/MS, non-compartmental analysis)
# Assay type: in vivo, Japanese patients
# experimental_setup: human, plasma, oral, 1000 mg, Cycle 1 Day 28; 1000 mg qd; n = 4; read-out: Cmax, Median
value_type: Cmax

Query block: If you can, please state the reported Cmax value of `Cn1c(=O)n(-c2ccc(C(C)(C)C#N)cc2)c2c3cc(-c4cnc5ccccc5c4)ccc3ncc21` .
Result block: 548 ng/mL
